# Tested on: Caspase 3
# Assay Notes: Caspase 3 detection assay in SJSA1 cells
# Assay type: cell-based
# Particulars: 0.3 μM, SJSA1, 48 h, Caspase 3 activation over DMSO-treated cells
Property Name: caspase 0.3 μM
Returns: the value as a bare number; no unit string appended.

For CC(=O)N[C@@H](C)C(=O)N[C@@H](C)C(=O)N[C@@H](CC(C)C)C(=O)N[C@H](C(=O)N[C@@H](Cc1ccccc1)C(=O)N[C@]1(C)CCCCCCC=CCCC[C@@](C)(C(=O)N[C@@H](CO)C(=O)N[C@@H](C)C(=O)N[C@@H](C)C(=O)N[C@@H](C)C(=O)N[C@H](C)C(N)=O)NC(=O)[C@H](CC2CCC2)NC(=O)[C@H](CCC(N)=O)NC(=O)[C@H](C)NC(=O)[C@H](Cc2c[nH]c3ccccc23)NC(=O)[C@H](Cc2ccc(O)cc2)NC(=O)[C@H](CCC(=O)O)NC1=O)[C@@H](C)O (single isomer, unassigned) [compound 359] the compound record lists caspase 0.3 μM as 3

For CC(=O)N[C@@H](CC(C)C)C(=O)N[C@H](C(=O)N[C@@H](Cc1ccc(F)c(F)c1)C(=O)N[C@]1(C)CCCCCCC=CCCC[C@@](C)(C(=O)N[C@@H](CO)C(=O)N[C@@H](C)C(=O)N[C@@H](C)C(N)=O)NC(=O)[C@H](CC(C)C)NC(=O)[C@H](CCC(N)=O)NC(=O)[C@H](C)NC(=O)[C@H](Cc2c[nH]c3ccccc23)NC(=O)[C@H](Cc2ccc(O)cc2)NC(=O)[C@H](CCC(=O)O)NC1=O)[C@@H](C)O (single isomer, unassigned) the compound record lists caspase 0.3 μM as 1
